// provenance: patent US12098144B2

# System Under Test: glucocorticoid receptor (Homo sapiens, UniProt P04150)
# Construct: endogenous in cells; ATCC cat
# Sequence (P04150 whole entry): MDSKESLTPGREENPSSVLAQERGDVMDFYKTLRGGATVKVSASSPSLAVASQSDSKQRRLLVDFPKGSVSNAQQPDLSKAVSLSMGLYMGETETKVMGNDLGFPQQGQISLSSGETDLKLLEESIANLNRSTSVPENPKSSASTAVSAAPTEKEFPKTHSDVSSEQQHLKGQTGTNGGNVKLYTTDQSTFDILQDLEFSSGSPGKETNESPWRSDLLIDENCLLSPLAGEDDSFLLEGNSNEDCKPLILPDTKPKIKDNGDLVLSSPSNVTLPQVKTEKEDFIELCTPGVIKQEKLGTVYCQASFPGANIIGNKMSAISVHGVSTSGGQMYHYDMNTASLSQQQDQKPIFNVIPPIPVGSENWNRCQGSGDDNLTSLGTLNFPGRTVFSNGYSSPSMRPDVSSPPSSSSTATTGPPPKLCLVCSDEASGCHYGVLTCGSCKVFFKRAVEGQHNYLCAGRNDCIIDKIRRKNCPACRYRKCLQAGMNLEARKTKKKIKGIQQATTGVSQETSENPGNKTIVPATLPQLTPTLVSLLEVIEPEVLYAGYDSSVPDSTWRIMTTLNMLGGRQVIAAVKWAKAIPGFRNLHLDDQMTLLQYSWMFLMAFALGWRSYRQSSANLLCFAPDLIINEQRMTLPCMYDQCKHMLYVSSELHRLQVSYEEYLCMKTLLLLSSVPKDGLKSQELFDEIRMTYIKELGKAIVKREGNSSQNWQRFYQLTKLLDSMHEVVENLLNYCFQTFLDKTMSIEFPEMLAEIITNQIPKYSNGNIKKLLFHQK
# Assay Overview: Hep G2 TAT Ki: inhibition of dexamethasone-induced TAT in HepG2 cells (96 well)
# Assay Conditions: challenge of 100 nM dexamethasone, IC50 converted to Ki by Cheng and Prusoff equation
Test Readout: Ki (nM)

In the examples that follow, each entry is paired with its recorded Ki.
| Compound | Ki / nM |
| --- | --- |
| Cc1cc2c(cnn2-c2ccc(F)cc2)cc1C1CN(S(=O)(=O)c2cn(CC(F)F)nc2C)CCN1CC(C)C (single isomer, unassigned) | 43 |
| Cc1cc2c(cnn2-c2ccc(F)cc2)cc1C1CN(S(=O)(=O)c2cnn(C)n2)CCN1CC1CC(F)(F)C1 (single isomer, unassigned) [Example 75] | 140 |
| Cc1cc2c(cnn2-c2ccc(F)cc2)cc1C1CN(S(=O)(=O)C2COC2)CCN1CC(C)C (single isomer, unassigned) | 65 |

a: Cc1cc2c(cnn2-c2ccc(F)cc2)cc1C1CN(S(=O)(=O)c2cnn(C)n2)CCN1CC1(C(F)(F)F)CC1 (single isomer, unassigned)
b: Cc1cc2c(cnn2-c2ccc(F)cc2)cc1C1CN(S(=O)(=O)c2ccn(C)n2)CCN1CC(C)C (single isomer, unassigned) [Example 20]
c: Cc1cc2c(cnn2-c2ccc(F)cc2)cc1C1CN(S(=O)(=O)c2cnn(C3CCOCC3)c2)CCN1CC(C)C (stereo not drawn) [Example 36]
Lookup: Hello, I need these entries ordered by Ki, highest reading first. Thanks! Provide the labels, sequenced as the question asks.
Found: b, c, a
(b: 130 nM, c: 50 nM, a: 33 nM)
